test system: MDA-MB-231 cells; assay: Effect of triacsin C on relative cell number of MDA-MB-231 control and ACSL4 knockdown cells; format: cell-based, human; conditions: MDA-MB-231 ACSL4 knockdown cells (ACSL4-siRNA), FIG. 7C; read-out: half-maximal inhibitory concentration
readout type: pIC50
By convention, pIC50 is the negative base-10 log of a molar concentration.

Ask: Entry CCC/C=C/C/C=C/C=C/C=N/NN=O [triacsin C] has what pIC50?
Result: 6.25
